measured-on: Bifunctional protein GlmU (Mycobacterium tuberculosis (strain ATCC 25618 / H37Rv)) (UniProt P9WMN3)
Sequence (P9WMN3 whole entry, looked up): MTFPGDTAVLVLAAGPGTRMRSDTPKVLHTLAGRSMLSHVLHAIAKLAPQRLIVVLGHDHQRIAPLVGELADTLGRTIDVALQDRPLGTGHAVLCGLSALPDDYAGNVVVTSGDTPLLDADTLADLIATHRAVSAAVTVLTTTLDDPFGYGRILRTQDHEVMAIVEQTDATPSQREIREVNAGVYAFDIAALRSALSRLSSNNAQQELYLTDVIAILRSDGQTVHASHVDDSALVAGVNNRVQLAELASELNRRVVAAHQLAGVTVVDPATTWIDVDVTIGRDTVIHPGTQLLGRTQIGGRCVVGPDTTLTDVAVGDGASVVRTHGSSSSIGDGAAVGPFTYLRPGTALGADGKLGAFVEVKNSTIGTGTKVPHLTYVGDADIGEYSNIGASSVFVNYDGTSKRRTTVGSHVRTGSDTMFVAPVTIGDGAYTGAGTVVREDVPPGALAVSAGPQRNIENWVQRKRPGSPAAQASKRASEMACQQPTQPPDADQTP
assay-protocol: inhibition of mycobacterial GlmU enzyme – biochemical, glucosamine-1-phosphate acetyltransferase (AID 1376);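 note: 0% = complete reaction with vehicle and 100% = reaction without substrate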
assay-context: M. tuberculosis GlmU acetyltransferase enzyme assay; stronger effect = higher value;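 tested at 30 µM in the primary screen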
Screen size: about 220,000 compounds; about 530 (0.24%) were called active. The full list was thinned out, with actives kept by preference. Potency and affinity values are given separately.
Record form. Attribute: inhibition. Fill in for each entry.
Please give a number only; it is taken to be in %.

What inhibition value was documented for this compound, `CCCCNC(=O)Oc1cc(CCl)on1` ? -3.53

# repeat for COc1cc(N(C(=O)Cc2cccs2)C(C(=O)NC2CCCCC2)c2cccc(OC)c2OC)ccc1-n1cnnn1 (configuration not stated) -6.93

Lookup `Cc1ccc(C=C2C(=O)c3ccccc3C2=O)o1` 2.45

Record: `O=[N+]([O-])c1ccc2c(c1)oc1ccccc12` 0.45

`CCC(=O)N1CCc2cc(Br)cc(S(=O)(=O)CCC(=O)N(CC)CC)c21` ? -2.77

Now consider `O=C(CSc1nc2ccccc2o1)N1CCN(S(=O)(=O)c2ccc3ccccc3c2)CC1` . -1.93

Thanks! And `Cc1ccccc1CN1[C@@H](Cc2ccccc2)COCCS1(=O)=O` ? -3.47

Next compound up: `COc1ccc(Cc2c(O)nc[nH]c2=O)cc1` 22.8

Likewise for `CCCCNC(=O)Oc1c(Br)cc2sc(=O)oc2c1Br` ? 13.8

Same lookup for `O=C(Cc1c(O)c2ccccc2[nH]c1=O)N(Cc1ccccc1)Cc1ccccc1` , please. 35

And then `CCN(CC)C(=O)Cc1c(O)c2ccccc2[nH]c1=O` , what is it? 1.17

Moving on to the next compound: `O=c1c2ccccc2oc2ncccc12` 3.79
